// values below are reported inhibition at 0.05 µM
# system under test: unphosphorylated VEGF-R2Δ50 (Homo sapiens, UniProt P35968, DEL940-989/E990V)
# Sequence (P35968 with tags, fused parts or gaps DEL940-989/E990V limits assumed): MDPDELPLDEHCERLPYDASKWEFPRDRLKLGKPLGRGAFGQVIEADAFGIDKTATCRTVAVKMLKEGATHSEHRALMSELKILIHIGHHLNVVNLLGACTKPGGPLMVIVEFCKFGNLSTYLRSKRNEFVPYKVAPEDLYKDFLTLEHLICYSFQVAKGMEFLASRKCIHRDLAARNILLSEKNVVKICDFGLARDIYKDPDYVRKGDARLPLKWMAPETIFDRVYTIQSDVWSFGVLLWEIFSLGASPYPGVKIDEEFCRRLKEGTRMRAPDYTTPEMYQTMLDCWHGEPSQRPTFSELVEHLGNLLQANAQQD
# assay overview: biochemical
# condition label: read-out: FLVK ** (% inhibition)
# output: bare number, implied unit %

compound	scale unit	observed value
COc1cccc(CNC(=O)c2ccccc2Sc2ccc3c(/C=C/c4ccccn4)n[nH]c3c2)c1 [Reference Example 35(aa)]	%	99
NC(=O)c1ccccc1Sc1ccc2c(/C=C/c3ccccn3)n[nH]c2c1 [Reference Example 35(d)]	%	76
COc1cccc(C(=O)Nc2cccc(C(=O)c3ccc4c(/C=C/c5ccccn5)n[nH]c4c3)c2)c1 [Reference Example 41(bb)]	%	99
Cc1ccccc1C(=O)NNC(=O)c1ccccc1Sc1ccc2c(/C=C/c3ccccn3)n[nH]c2c1 [Reference Example 35(q)]	%	92
CCONC(=O)c1cccc(F)c1Sc1ccc2c(/C=C/c3ccccn3)n[nH]c2c1 [Reference Example 37(a)]	%	57

What value of inhibition at 0.05 µM has been reported for the following compound? O=C(NCCc1cccs1)c1ccccc1Sc1ccc2c(/C=C/c3ccccn3)n[nH]c2c1 [Reference Example 35(hh)] 100

Then Cc1cc(C(=O)Nc2cccc(C(=O)c3ccc4c(/C=C/c5ccccn5)n[nH]c4c3)c2)nn1C [Reference Example 41(i)] ? 98

Then O=C(Nc1cccc(C(=O)c2ccc3c(/C=C/c4ccccn4)n[nH]c3c2)c1)c1ccnc(Cl)c1 [Reference Example 41(w)] ? 97

Then CCn1nc(C)cc1C(=O)Nc1cccc(Oc2ccc3c(/C=C/c4ccccn4)n[nH]c3c2)c1 [Reference Example 31(d)] ? 96

Then CCCn1nc(C)cc1C(=O)Nc1cccc(C(=O)c2ccc3c(/C=C/c4ccccn4)n[nH]c3c2)c1 [Reference Example 41(r)] ? 100

Then CC(C)ONC(=O)c1cccc(F)c1Sc1ccc2c(/C=C/c3ccccn3)n[nH]c2c1 [Reference Example 37(c)] ? 83

Then Cc1cc(C(=O)Nc2cc(C(=O)c3ccc4c(/C=C/c5ccccn5)n[nH]c4c3)ccc2C)n(C)n1 [Reference Example 41(hh)] ? 98

Then O=C(NCc1ccncc1)c1ccccc1Sc1ccc2c(/C=C/c3ccccn3)n[nH]c2c1 [Reference Example 35(p)] ? 62

Then CC(C)ONC(=O)c1ccccc1Sc1ccc2c(/C=C/c3ccccn3)n[nH]c2c1 [Reference Example 35(k)] ? 85

Then O=C(N/N=C/C(F)(F)F)c1ccccc1Sc1ccc2c(/C=C/c3ccccn3)n[nH]c2c1 [Reference Example 36(c)] ? 89
